- System: Nucleic Acid
- MEASUREMENT DESCRIPTION: Compound was evaluated for binding affinity to poly(dG-dC) polymer using ethidium displacement assay
- Type: nucleic-acid assay
Listing of entries alongside the reported C50.
Please provide the amount together with its unit, number first.

Look over these answered cases.
[[record]]
structure_smiles_string = "CN(C)CCCNC(=O)c1cc(NC(=O)c2cc(NC(=O)c3ccc(N(CCCl)CCCl)cc3)cn2CCCCCCCCCCn2cc(NC(=O)c3ccc(N(CCCl)CCCl)cc3)cc2C(=O)Nc2cc(C(=O)NCCCN(C)C)n(C)c2)cn1C"
property = "C50"
result = "1.96 µM"

[[record]]
structure_smiles_string = "CN(C)CCCNC(=O)c1cc(NC(=O)c2cc(NC(=O)c3ccc(N(CCCl)CCCl)cc3)cn2C)cn1C"
property = "C50"
result = "11 µM"

[[record]]
structure_smiles_string = "CN(C)CCCNC(=O)c1cc(NC(=O)c2cc(NC(=O)c3ccc(N(CCCl)CCCl)cc3)cn2CCCCCCCCn2cc(NC(=O)c3ccc(N(CCCl)CCCl)cc3)cc2C(=O)Nc2cc(C(=O)NCCCN(C)C)n(C)c2)cn1C"
property = "C50"
result = "1.64 µM"


May I ask what C50 has been recorded for `CN(C)CCCNC(=O)c1cc(NC(=O)c2cc(NC(=O)c3ccc(N(CCCl)CCCl)cc3)cn2CCCCCCCCCCCn2cc(NC(=O)c3ccc(N(CCCl)CCCl)cc3)cc2C(=O)Nc2cc(C(=O)NCCCN(C)C)n(C)c2)cn1C` ?
2.46 µM

Repeat with `CN(C)CCCNC(=O)c1cc(NC(=O)c2cc(NC(=O)c3ccc(N(CCCl)CCCl)cc3)cn2CCCCCCCCCn2cc(NC(=O)c3ccc(N(CCCl)CCCl)cc3)cc2C(=O)Nc2cc(C(=O)NCCCN(C)C)n(C)c2)cn1C`
1.97 µM

Repeat with `CN(C)CCCNC(=O)c1cc(NC(=O)c2cc(NC(=O)c3ccc(N(CCCl)CCCl)cc3)cn2CCCCCCCCCCCCn2cc(NC(=O)c3ccc(N(CCCl)CCCl)cc3)cc2C(=O)Nc2cc(C(=O)NCCCN(C)C)n(C)c2)cn1C`
2.11 µM

* * *

Listing of entries alongside the reported C50.
- System: Nucleic Acid
- MEASUREMENT DESCRIPTION: Compound was evaluated for binding affinity to alternating poly(dA)-poly(dT) polymer using ethidium displacement assay
- Format: nucleic-acid assay
Numbers only; they are read as µM.

Look over these answered cases.
[[record]]
structure_smiles_string = "CN(C)CCCNC(=O)c1cc(NC(=O)c2cc(NC(=O)c3ccc(N(CCCl)CCCl)cc3)cn2C)cn1C"
quantitative_readout = 0.199

[[record]]
structure_smiles_string = "CN(C)CCCNC(=O)c1cc(NC(=O)c2cc(NC(=O)c3ccc(N(CCCl)CCCl)cc3)cn2CCCCCCCCCn2cc(NC(=O)c3ccc(N(CCCl)CCCl)cc3)cc2C(=O)Nc2cc(C(=O)NCCCN(C)C)n(C)c2)cn1C"
quantitative_readout = 1.31


May I ask what C50 has been recorded for `CN(C)CCCNC(=O)c1cc(NC(=O)c2cc(NC(=O)c3ccc(N(CCCl)CCCl)cc3)cn2CCCCCCCCCCn2cc(NC(=O)c3ccc(N(CCCl)CCCl)cc3)cc2C(=O)Nc2cc(C(=O)NCCCN(C)C)n(C)c2)cn1C` ?
1.1
